# ASSAY_TARGET: human Nav1.8 channels (Homo sapiens, UniProt Q9Y5Y9)
# Construct: expressed in transfected cells
# Sequence (Q9Y5Y9 whole entry): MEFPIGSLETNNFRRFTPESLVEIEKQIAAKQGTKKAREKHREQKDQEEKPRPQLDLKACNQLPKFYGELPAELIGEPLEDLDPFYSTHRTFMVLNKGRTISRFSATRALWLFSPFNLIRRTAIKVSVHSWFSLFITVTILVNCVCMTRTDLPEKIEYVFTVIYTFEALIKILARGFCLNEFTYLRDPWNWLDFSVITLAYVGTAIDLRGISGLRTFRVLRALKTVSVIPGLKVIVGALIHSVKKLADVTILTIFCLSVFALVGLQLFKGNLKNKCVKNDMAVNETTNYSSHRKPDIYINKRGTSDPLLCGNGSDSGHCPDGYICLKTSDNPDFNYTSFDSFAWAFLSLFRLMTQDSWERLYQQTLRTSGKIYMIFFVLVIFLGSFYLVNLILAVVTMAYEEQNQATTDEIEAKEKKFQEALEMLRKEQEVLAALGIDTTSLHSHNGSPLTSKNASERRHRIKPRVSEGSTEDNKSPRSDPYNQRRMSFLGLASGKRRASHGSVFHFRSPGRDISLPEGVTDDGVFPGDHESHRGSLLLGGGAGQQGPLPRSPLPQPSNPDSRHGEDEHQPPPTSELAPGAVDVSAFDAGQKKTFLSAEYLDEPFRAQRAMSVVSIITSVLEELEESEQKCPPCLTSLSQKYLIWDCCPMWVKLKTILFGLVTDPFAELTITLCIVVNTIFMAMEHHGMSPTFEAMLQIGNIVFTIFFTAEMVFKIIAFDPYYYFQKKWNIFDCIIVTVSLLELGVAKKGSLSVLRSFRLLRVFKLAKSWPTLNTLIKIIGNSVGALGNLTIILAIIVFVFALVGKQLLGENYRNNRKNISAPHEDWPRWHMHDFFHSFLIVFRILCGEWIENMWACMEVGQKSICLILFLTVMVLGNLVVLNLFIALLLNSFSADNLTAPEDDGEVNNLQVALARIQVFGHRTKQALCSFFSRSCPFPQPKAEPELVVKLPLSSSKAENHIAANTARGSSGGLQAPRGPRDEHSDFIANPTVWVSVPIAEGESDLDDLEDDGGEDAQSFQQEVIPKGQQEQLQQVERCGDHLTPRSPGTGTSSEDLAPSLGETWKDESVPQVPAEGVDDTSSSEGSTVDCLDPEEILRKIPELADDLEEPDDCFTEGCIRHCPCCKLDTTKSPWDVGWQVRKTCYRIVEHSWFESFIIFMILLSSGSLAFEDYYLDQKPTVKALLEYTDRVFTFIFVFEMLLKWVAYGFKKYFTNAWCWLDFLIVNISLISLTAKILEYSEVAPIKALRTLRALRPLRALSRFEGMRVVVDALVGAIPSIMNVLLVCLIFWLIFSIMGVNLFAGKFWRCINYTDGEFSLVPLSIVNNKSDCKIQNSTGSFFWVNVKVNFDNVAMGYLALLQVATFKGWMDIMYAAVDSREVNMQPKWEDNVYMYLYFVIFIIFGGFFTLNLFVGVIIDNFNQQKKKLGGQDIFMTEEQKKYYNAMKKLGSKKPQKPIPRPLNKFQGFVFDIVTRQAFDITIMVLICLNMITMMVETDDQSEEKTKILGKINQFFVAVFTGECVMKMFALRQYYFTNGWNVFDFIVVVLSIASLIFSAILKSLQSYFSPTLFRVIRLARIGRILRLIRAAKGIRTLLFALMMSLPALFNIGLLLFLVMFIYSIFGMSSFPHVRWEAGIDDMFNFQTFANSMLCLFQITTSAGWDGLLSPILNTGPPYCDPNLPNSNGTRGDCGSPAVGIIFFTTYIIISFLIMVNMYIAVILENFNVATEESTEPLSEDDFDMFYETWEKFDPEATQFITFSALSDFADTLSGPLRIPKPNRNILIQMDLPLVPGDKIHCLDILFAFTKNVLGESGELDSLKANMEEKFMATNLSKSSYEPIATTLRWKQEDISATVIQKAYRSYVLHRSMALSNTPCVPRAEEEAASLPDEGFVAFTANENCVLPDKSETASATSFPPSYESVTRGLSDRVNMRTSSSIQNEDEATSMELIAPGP
# EXPERIMENT: Nav1.8 Qube automated patch-clamp assay
# Format: cell-based
# TEST_SETTINGS: human Nav1.8 stably expressed in HEK 293 cells; whole-cell voltage clamp, room temperature; resting or inactivated state not specified; read-out: IC50 values (nM) for Examples in the Nav1.8 Qube Assay
ASSAY_METRIC: log10 of IC50 (log10 of the value in nM)
Hi team, quick reminder: these entries are log10 of IC50 (nM).

> print(dat)
                                   molecule   assay.metric  reported
1  NS(=O)(=O)c1cc(NC(=O)c2cc(C(F)(F)F)cnc2N2CCC(C(F)(F)F)CC2)ccn1 [Example 82]  log10 of IC50      1.73
2  CC12CCN(c3ncc(C(F)(F)F)cc3C(=O)Nc3ccnc(S(N)(=O)=O)c3)CC1C2(F)F (single isomer, unassigned) [Example 61]  log10 of IC50      1.18
3  Cc1nc(N2CCC(F)(F)CC2)c(C(=O)Nc2ccnc(S(N)(=O)=O)c2)cc1C1CC1 [Example 14]  log10 of IC50      1.65
4  C[C@@H]1CN(c2ncc(C(F)(F)F)cc2C(=O)Nc2ccnc(S(N)(=O)=O)c2)C[C@@H](C(F)(F)F)O1 [Example 102]  log10 of IC50      1.43

Field request: log10 of IC50 | item: NS(=O)(=O)c1cc(NC(=O)c2cc(C(F)(F)F)nnc2N2CCCC(F)(F)CC2)ccn1 [Example 179]
2.01

Field request: log10 of IC50 | item: NS(=O)(=O)c1cc(NC(=O)c2cc(-c3ccccc3)cnc2N2CCC(F)(F)CC2)ccn1 [Example 205]
1.85

Field request: log10 of IC50 | item: C[C@H]1CN(c2ncc(C(F)(F)F)cc2C(=O)Nc2ccnc(S(N)(=O)=O)c2)C[C@H](C(F)(F)F)O1 [Example 103]
2.22

* * *

Below, each of the compounds is paired with its reported log10 IC50 value.
# ASSAY_TARGET: human Nav1.8 channels (Homo sapiens)
# Construct: expressed in transfected cells
# EXPERIMENT: Nav1.8 Qube automated patch-clamp assay
# Type: cell-based
# TEST_SETTINGS: human Nav1.8 stably expressed in HEK 293 cells; whole-cell voltage clamp, room temperature; resting or inactivated state not specified; read-out: IC50 values (nM) for Examples in the Nav1.8 Qube Assay
Hi team, quick reminder: these entries are log10 of IC50 (nM).

> print(dat)
                                   compound  assay.metric  reported
1  C[C@@H]1CN(c2ncc(C(F)(F)F)cc2C(=O)Nc2ccnc(S(N)(=O)=O)c2)CCC1(F)F (single isomer, unassigned)    log10 IC50      1.08

Field request: log10 IC50 | item: "Cc1sc(S(N)(=O)=O)cc1NC(=O)c1cc(C(F)(F)F)cnc1N1CCCCCC1"
1.98

Field request: log10 IC50 | item: "O=C(Nc1ccnc(S(=O)(=O)O)c1)c1cc(C(F)(F)F)cnc1N1CCC(F)(F)CC1"
3.04

Field request: log10 IC50 | item: "Cc1nc(N2CCC(F)(F)CC2)c(C(=O)Nc2cncc(S(N)(=O)=O)c2)c(C)c1Cl"
1.11

Field request: log10 IC50 | item: "NS(=O)(=O)c1cc(NC(=O)c2cc(C(F)(F)F)cnc2N2CC(F)(F)C(F)(F)C2)ccn1"
2.82

Field request: log10 IC50 | item: NS(=O)(=O)c1cc(NC(=O)c2cc(C(F)(F)F)cnc2N2CC3CC(F)(F)C3C2)ccn1 (single isomer, unassigned) [Example 64]
1.36

Field request: log10 IC50 | item: N#CC1CCN(c2ncc(C(F)(F)F)cc2C(=O)Nc2ccnc(S(N)(=O)=O)c2)C1 (single isomer, unassigned) [Example 130]
3.59
